Consider the following compounds and their measured pIC50 readings.
- Assayed target: wild-type RET kinase (Homo sapiens)
- Sequence (P07949 29-1114): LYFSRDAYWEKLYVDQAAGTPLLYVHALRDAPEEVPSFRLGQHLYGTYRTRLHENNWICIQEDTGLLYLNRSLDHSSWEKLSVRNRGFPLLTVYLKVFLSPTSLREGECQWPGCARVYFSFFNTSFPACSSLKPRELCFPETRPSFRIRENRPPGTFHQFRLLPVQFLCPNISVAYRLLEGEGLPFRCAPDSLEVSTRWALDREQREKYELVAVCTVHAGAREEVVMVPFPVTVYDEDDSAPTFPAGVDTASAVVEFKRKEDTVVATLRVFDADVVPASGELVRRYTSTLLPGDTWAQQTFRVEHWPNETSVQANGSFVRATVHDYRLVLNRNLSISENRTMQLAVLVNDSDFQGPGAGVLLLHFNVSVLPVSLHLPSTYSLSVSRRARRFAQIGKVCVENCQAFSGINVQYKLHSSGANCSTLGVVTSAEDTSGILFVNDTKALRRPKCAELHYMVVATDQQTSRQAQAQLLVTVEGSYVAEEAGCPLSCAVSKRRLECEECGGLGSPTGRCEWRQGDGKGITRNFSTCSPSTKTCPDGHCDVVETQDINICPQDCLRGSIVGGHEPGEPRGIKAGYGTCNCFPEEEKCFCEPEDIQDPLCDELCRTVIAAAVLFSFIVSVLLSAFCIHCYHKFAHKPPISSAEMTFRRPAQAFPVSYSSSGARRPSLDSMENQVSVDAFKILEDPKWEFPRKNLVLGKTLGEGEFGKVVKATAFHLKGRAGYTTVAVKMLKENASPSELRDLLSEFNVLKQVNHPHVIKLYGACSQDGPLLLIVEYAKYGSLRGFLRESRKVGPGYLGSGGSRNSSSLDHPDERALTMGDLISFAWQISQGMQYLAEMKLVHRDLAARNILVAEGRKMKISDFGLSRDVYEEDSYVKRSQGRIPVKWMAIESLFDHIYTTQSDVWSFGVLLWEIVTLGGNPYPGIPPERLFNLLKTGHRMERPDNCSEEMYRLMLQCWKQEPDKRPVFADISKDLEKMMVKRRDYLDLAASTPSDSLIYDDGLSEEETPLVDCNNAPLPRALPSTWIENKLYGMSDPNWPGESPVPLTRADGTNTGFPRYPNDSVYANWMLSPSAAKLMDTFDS
- Run description: Kinase activity assay against wild-type RET at ATP Km (33P-ATP, filter-binding)
- Format: biochemical
- Experimental conditions: ATP Km concentration, 10 concentrations
pIC50: −log10 of the molar value.

>  <Compound>
COc1ccc(CN2CCC(n3ccc(-c4cc(-c5cnn(C)c5)cn5ncc(C#N)c45)cc3=O)C2)cn1 (centres unmarked)

>  <pIC50>
7.39

$$$$
>  <Compound>
COc1ccc(CN2CCCC(n3cc(-c4cc(-c5cnn(C)c5)cn5ncc(C#N)c45)cn3)C2)cn1 (centres unmarked)

>  <pIC50>
8.45

$$$$
